tested on: SW-620 colon; test: NCI tumour cell line growth inhibition, 48 h

{"compound": "C=CCN1C(=O)CS/C1=N\\NC(=O)c1c(C)nc2sccn12", "TGI": "> 100 µM"}
{"compound": "COC1=CC(c2ccc[nH]2)=N/C1=C\\c1[nH]c(C)c(C(=O)CCC(=O)Oc2ccc3c(c2)CCC2C3CC[C@]3(C)C(=O)CC[C@@H]23)c1C (stereo partly specified)", "TGI": "> 37.9 µM"}
{"compound": "C[N+]1(C)CC=C(N2CCOCC2)CC1", "TGI": "> 10 µM"}
{"compound": "COc1ccc(CC(=O)c2cc(OC)c(OC)cc2C)cc1OC", "TGI": "> 100 µM"}
{"compound": "CCOC(=O)c1ccc(NC2Oc3cc4c(cc3C(c3cc(OC)c(OC)c(OC)c3)C2C)OCO4)cc1 (stereo unspecified)", "TGI": "> 100 µM"}
{"compound": "COc1ccccc1-c1cc2c3c(nc4ccccc42)C(=O)c2cccnc2-c3n1", "TGI": "27.3 µM"}

Taken from PubChem BioAssay (NCI).
